Attribution: paper PMC6268991

// reported Ka (×10^4 M^-1) per item
target: human serum albumin (HSA) (Homo sapiens); construct: gene ALB; assay: intrinsic fluorescence quenching, modified Stern-Volmer; type: binding; conditions: 298 K, pH 7.4, 0.1 M Tris, 0.1 M NaCl, 1 µM HSA, ex 280 / em 337 nm; site II (subdomain IIIA), no site marker
Sequence (P02768 25-609): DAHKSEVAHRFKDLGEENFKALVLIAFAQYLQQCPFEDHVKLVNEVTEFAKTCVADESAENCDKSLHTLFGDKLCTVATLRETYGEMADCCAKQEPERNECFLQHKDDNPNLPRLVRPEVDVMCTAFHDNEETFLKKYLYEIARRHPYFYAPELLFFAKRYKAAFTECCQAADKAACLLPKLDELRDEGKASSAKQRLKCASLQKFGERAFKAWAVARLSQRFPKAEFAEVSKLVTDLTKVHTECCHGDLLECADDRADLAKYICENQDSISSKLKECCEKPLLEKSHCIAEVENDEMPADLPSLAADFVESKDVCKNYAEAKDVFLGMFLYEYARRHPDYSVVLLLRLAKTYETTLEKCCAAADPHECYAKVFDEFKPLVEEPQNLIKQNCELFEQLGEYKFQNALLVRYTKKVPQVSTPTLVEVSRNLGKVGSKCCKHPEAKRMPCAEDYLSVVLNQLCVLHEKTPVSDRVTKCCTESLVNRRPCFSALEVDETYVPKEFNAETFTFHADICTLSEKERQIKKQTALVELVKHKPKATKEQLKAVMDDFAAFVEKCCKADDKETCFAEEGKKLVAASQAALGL

Here is how some compounds turned out for Ka (×10^4 M^-1).
> print(dat)
                                   compound     readout.kind           result
1  CC(C)(C)CC(=O)N1c2ccc(Cl)cc2C(=O)N(N=Cc2ccccc2)C1c1ccccc1 (centres unmarked) [3a]  Ka (×10^4 M^-1)  2.16 ×10^4 M^−1
2  CC(C)(C)CC(=O)N1c2ccc(Cl)cc2C(=O)N(N=Cc2ccc(I)cc2)C1c1ccc(I)cc1 (centres unmarked) [3e]  Ka (×10^4 M^-1)  7.21 ×10^4 M^−1
3  CC(C)(C)CC(=O)N1c2ccc(Cl)cc2C(=O)N(N=Cc2ccc(Br)cc2)C1c1ccc(Br)cc1 (centres unmarked) [3d]  Ka (×10^4 M^-1)  4.37 ×10^4 M^−1
4  CC(C)(C)CC(=O)N1c2ccc(Cl)cc2C(=O)N(N=Cc2ccc(F)cc2)C1c1ccc(F)cc1 (centres unmarked) [3b]  Ka (×10^4 M^-1)  2.64 ×10^4 M^−1

Here is another compound to look at.
Query block: Form field: reported Ka (×10^4 M^-1) of CC(C)(C)CC(=O)N1c2ccc(Cl)cc2C(=O)N(N=Cc2ccc(Cl)cc2)C1c1ccc(Cl)cc1 (centres unmarked) [3c]
Result block: 3.44 ×10^4 M^−1
